Task for the reader: assign each of the following compounds its reported melting point.

The value of melting point measured for the compound CN1CC(CCN2CCOCC2)Oc2ncccc2C1=S (stereo not given) turned out to be 152 to 153 °C

The value of melting point measured for the compound CCc1noc(-c2cn(-c3cccc(Oc4ccc([N+](=O)[O-])cc4)c3)cn2)n1 turned out to be 145 to 146 °C

The value of melting point measured for the compound COC(=O)CCC(=O)N(C)c1cccc(OCc2nc3ccccc3s2)c1 turned out to be 107 to 110 °C

The value of melting point measured for the compound O=C1CNc2ncc(-c3ccc(C(=O)N4CCC[C@H]4CN4CCCC4)cc3)cc2N1Cc1cc(F)ccc1F turned out to be 125 °C

The value of melting point measured for the compound COCC1CCCN(/C(C)=C(/C#N)C(N)=S)C1 (stereo not given) turned out to be 151 to 152 °C

---

Task for the reader: assign each of the following compounds its reported melting point.

The value of melting point measured for the compound CNC(=O)[C@@H]1C[C@H](SCc2ccc(OC)cc2)CN1 turned out to be 53 to 54 °C

The value of melting point measured for the compound CCCCCCCCCCCCCCCCCC(=O)c1c[nH]c2cc(C(=O)O)ccc12 turned out to be 268 to 270 °C

The value of melting point measured for the compound OCCCc1cn(-c2ccc(C(F)(F)F)cn2)nc1C1CCCCC1 turned out to be 106 to 107 °C

The value of melting point measured for the compound Nc1ncnc2c1c(-c1ccc(Oc3ccccc3)cc1)nn2C1CCC2(CC1)OCCO2 turned out to be 200 to 202 °C

The value of melting point measured for the compound COc1ccc(C#N)cc1OC1COCC1OC (stereo not given) turned out to be 98 to 100 °C

---

Task for the reader: assign each of the following compounds its reported melting point.

The value of melting point measured for the compound COc1cc(Nc2nccc(-c3ccc(N4CCN(CCO)CC4)nc3)n2)cc(OC)c1OC turned out to be 156 to 157 °C

The value of melting point measured for the compound CCCn1nc(C(C)C)c(C(N)=O)c1Cc1ccc(-c2ccccc2S(=O)(=O)NC(=O)c2ccccc2)cc1 turned out to be 197 to 200 °C

The value of melting point measured for the compound CC(c1ccccc1)N1CCN(c2nn(C)c3c2Cc2ccccc2-3)CC1 (stereo not given) turned out to be 138 to 139 °C

The value of melting point measured for the compound CN(C)CCNC(=O)c1ccc2c(c1)CN(C(=O)CCCCCN1CCN(c3cccc(C(F)(F)F)c3)CC1)C2 turned out to be 120 °C

The value of melting point measured for the compound O=C1C(=Cc2ccccc2)CCc2cc(OCCc3c[nH]cn3)ccc21 turned out to be 53 to 56 °C

The value of melting point measured for the compound CC1(C)CC(=O)C2=C(C1)NC1=C(C(=O)CC(C)(C)C1)C2c1ccc(OC(F)(F)F)cc1 turned out to be 234 °C

The value of melting point measured for the compound CCc1cc2c(s1)-n1c(C)nnc1C(CCCC(=O)Nc1ccccc1)N=C2c1ccc(Cl)cc1 (stereo not given) turned out to be 238 to 240 °C

The value of melting point measured for the compound CCOC(=O)c1sc(SC)c2c1CCC(Br)C2=O (stereo not given) turned out to be 147 to 148 °C

The value of melting point measured for the compound CCCc1cc(=O)oc2cc(O)c3c(c12)OC(C)(C)C=C3 turned out to be 190 to 192 °C

The value of melting point measured for the compound COc1cc(C(=O)NCC2c3ccccc3CC(C)N2C(=O)c2ccccc2)cc(OC)c1OC (stereo not given) turned out to be 160 to 162 °C

The value of melting point measured for the compound COc1ccc(/C=N/Nc2ccccc2C(=O)O)cc1OC1CCCC1 turned out to be 174 to 176 °C

The value of melting point measured for the compound Oc1ccc(C(F)(F)F)c2ccccc12 turned out to be 132 to 133 °C

The value of melting point measured for the compound O=C1CCCCN1S(=O)(=O)c1ccc(N2CCCCC2)cc1 turned out to be 140 to 145 °C

The value of melting point measured for the compound COc1cc(CNc2ccc3c(c2)N2CCCN=C2S3)cc(OC)c1OC turned out to be 191 °C

The value of melting point measured for the compound O=C(C=Cc1ccc(O)c([N+](=O)[O-])c1)NC12CC3CC(CC(C3)C1)C2 turned out to be 162 to 163 °C

The value of melting point measured for the compound CC(C)(C)CC(C)(C)c1ccc(OCC(=O)Nc2ccc(Cl)c(Nc3cc(=O)n(-c4c(Cl)cc(Cl)cc4Cl)[nH]3)c2)cc1 turned out to be 126 to 128 °C

The value of melting point measured for the compound COc1ccc2c(c1)Sc1c(cc(OC)c(O)c1Br)N2C turned out to be 154 to 155 °C

The value of melting point measured for the compound CCCCCCCCCC1OC1C(=O)O (stereo not given) turned out to be 56 to 57 °C

The value of melting point measured for the compound CNC(=O)N(O)C(C)c1ccc(Cl)c(C)c1 (stereo not given) turned out to be 99 to 102 °C

The value of melting point measured for the compound N#Cc1cccc(-c2ccc3c(c2)C2(CCCC2)C(=O)N3)c1 turned out to be 217 to 219 °C

The value of melting point measured for the compound O=[N+]([O-])c1ccc(F)c(-c2ccccn2)c1F turned out to be 84 to 86 °C

The value of melting point measured for the compound O=C(O)CNC(=O)CCCC1CCCCC1 turned out to be 85 to 88 °C

The value of melting point measured for the compound CC(=O)OCCCCc1c(C)[nH]c(C(=O)OC(C)(C)C)c1C turned out to be 62 °C

The value of melting point measured for the compound COc1cc(C(=O)c2ccccc2)cc(C#N)c1OC turned out to be 98 to 100 °C

The value of melting point measured for the compound CC(NC(=O)Cc1cc(F)cc(F)c1)C(=O)C1(N)N=C(c2ccccc2)c2cc(Cl)ccc2N(C)C1=O (stereo not given) turned out to be 126 to 130 °C

The value of melting point measured for the compound CCOC(=O)c1ccc(/C=C(\C)c2cc(OC)c3c(c2)C(C)(C)CC3(C)C)cc1 turned out to be 72 to 73 °C

The value of melting point measured for the compound CC(C)C(S)C(=O)NC1(C(=O)NC(Cc2ccc(-c3ccccc3)s2)C(=O)O)CCCC1 (stereo not given) turned out to be 154 to 155 °C

The value of melting point measured for the compound CC(C)(Oc1ccc(Cc2ccccc2)cc1)C(=O)O turned out to be 130 °C

The value of melting point measured for the compound CNC(=O)Oc1ccc2[nH]cc(CCCN3CCN(c4ncncc4OC)CC3)c2c1 turned out to be 120 to 122 °C

The value of melting point measured for the compound Cc1ccc(Cl)c(N2C(=O)C(=O)c3ccccc32)c1Cl turned out to be 164 to 166 °C

The value of melting point measured for the compound CC(C)C[C@H](NC(=O)NCc1ccccc1)C(=O)N[C@@H](Cc1ccccc1)C(=O)CSCc1ccco1 turned out to be 95 to 97 °C

The value of melting point measured for the compound COc1ccc(NC(=O)[C@H]2[C@H](c3ccccc3)C23CCCC3)c(OC)n1 (relative stereo) turned out to be 131 to 133 °C

The value of melting point measured for the compound CC1CN(c2ccc([N+](=O)[O-])nc2)C1 turned out to be 141 to 143 °C

The value of melting point measured for the compound OC(CC1CCNCC1)c1cc(-c2ccccc2)nc2ccccc12 (stereo not given) turned out to be 147 °C

The value of melting point measured for the compound CCOC(=O)C(O)c1ccc(-n2cccc2)cc1 (stereo not given) turned out to be 126 to 128 °C

The value of melting point measured for the compound CC(C)(C)OC(=O)N1C2CCC1CNC2 turned out to be 102 to 104 °C

The value of melting point measured for the compound COc1cc(OC)cc(-c2ncn(C)c2-c2ccc(OC(F)F)c(N)c2)c1 turned out to be 99.2 to 101 °C

The value of melting point measured for the compound CCCN1N=C(c2ccc(OC)c(OC)c2)[C@@H]2CCCC[C@@H]2C1=O (relative stereo) turned out to be 95 to 96 °C

The value of melting point measured for the compound C=C(F)CCc1cccc(C2(c3ccc(OC(F)F)cc3)N=C(N)N(C)C2=O)c1 (stereo not given) turned out to be 58 to 60 °C

The value of melting point measured for the compound O=C(O)CCCCCc1c(OCc2ccccc2)ccc2cncn12 turned out to be 139 to 141 °C
